Assay: Metabolic stability in CD-1 mouse liver microsomes assessed as half life at 1 uM measured upto 60 mins in absence of NADPH by LC-MS/MS analysis
Type: ADME, Microsome
Conditions: CD-1, mouse, liver microsomes
MEASURED QUANTITY: half-life at 1 µM

Q. # lookup: half-life at 1 µM of COc1cccc2[nH]c(C(=O)N[C@@H](CC(C)C)C(=O)N[C@@H](C[C@@H]3CCCNC3=O)C(=O)COC(=O)c3c(Cl)cccc3Cl)cc12
A. < 180 min

###

Biological target: Cathepsin B (Homo sapiens)
Test: Inhibition of human cathepsin B at 1 uM incubated for 30 mins by fluorometric analysis
Exercise: state measured inhibition for each of the molecules provided.
Respond numerically; units are % and should not be typed.

Q. # lookup: inhibition of COc1cccc2[nH]c(C(=O)N[C@@H](CC(C)C)C(=O)N[C@@H](C[C@@H]3CCCNC3=O)C(=O)CO)cc12
A. 26.5

Q. Also, O=C[C@H](C[C@@H]1CCNC1=O)NC(=O)[C@H](CC1CCCCC1)NC(=O)OCc1cccc(Cl)c1 please.
A. 72.5

Q. Also, COc1cccc2[nH]c(C(=O)N[C@@H](CC(C)C)C(=O)N[C@@H](C[C@@H]3CCCNC3=O)C(=O)COC(=O)c3ccccc3)cc12 please.
A. 16.2

Q. Also, COc1cccc2[nH]c(C(=O)N[C@@H](CC(C)C)C(=O)N[C@@H](C[C@@H]3CCCNC3=O)C(=O)COC(=O)c3c(C(F)(F)F)cc(C)nc3C)cc12 please.
A. 95

Q. Also, COc1cccc2[nH]c(C(=O)N[C@@H](CC(C)C)C(=O)N[C@@H](C[C@@H]3CCCNC3=O)C(=O)COC(=O)C3(C(F)(F)F)CCCCC3)cc12 please.
A. 38.6

Q. Also, COc1cccc2[nH]c(C(=O)N[C@@H](CC(C)C)C(=O)N[C@@H](C[C@@H]3CCCNC3=O)C(=O)COC(=O)c3c(C(F)(F)F)cccc3C(F)(F)F)cc12 please.
A. 91.3

Q. Also, COc1cccc2[nH]c(C(=O)N[C@@H](CC(C)C)C(=O)N[C@@H](C[C@@H]3CCCNC3=O)C(=O)COC(=O)c3c(C)cc(C)nc3C)cc12 please.
A. 86.7

###

Test: Stability in CD-1 mouse plasma assessed as half life at 2 uM measured upto 120 mins by LC-MS/MS analysis
Assay type: ADME, cell-free
Exercise: state measured half-life at 2 µM for each of the molecules provided.
Respond numerically; units are h and should not be typed.

Q. # lookup: half-life at 2 µM of COc1cccc2[nH]c(C(=O)N[C@@H](CC(C)C)C(=O)N[C@@H](C[C@@H]3CCCNC3=O)C(=O)COC(=O)c3c(Cl)cccc3Cl)cc12
A. 2.83

Q. Also, COc1cccc2[nH]c(C(=O)N[C@@H](CC(C)C)C(=O)N[C@@H](C[C@@H]3CCCNC3=O)C(=O)COC(=O)C(C)(C)C(F)(F)F)cc12 please.
A. 0.193

###

Assay: Selectivity index, ratio of CC50 for cytotoxicity against African green monkey VeroE6 cells assessed as reduction in cell viability to EC50 for antiviral activity against SARS-CoV-2 3CL protease
Type: toxicity, cell-based
Conditions: read-out: Ratio
MEASURED QUANTITY: selectivity ratio

Q. # lookup: selectivity ratio of COc1cccc2[nH]c(C(=O)N[C@@H](CC(C)C)C(=O)N[C@@H](C[C@@H]3CCCNC3=O)C(=O)COC(=O)c3c(C(F)(F)F)cc(C)nc3C)cc12
A. > 426

###

Exercise: state measured half-life for each of the compounds provided.
Test: Metabolic stability in human plasma assessed as half life measured upto 2 hrs by LC-MS analysis
Format: ADME, cell-free

Q. # lookup: half-life of COc1cccc2[nH]c(C(=O)N[C@@H](CC(C)C)C(=O)N[C@@H](C[C@@H]3CCCNC3=O)C(=O)COC(=O)c3ccccc3)cc12
A. 209 min

Q. Also, COc1cccc2[nH]c(C(=O)N[C@@H](CC(C)C)C(=O)N[C@@H](C[C@@H]3CCCNC3=O)C(=O)COC(=O)c3cccnc3)cc12 please.
A. < 15 min

Q. Also, COc1cccc2[nH]c(C(=O)N[C@@H](CC(C)C)C(=O)N[C@@H](C[C@@H]3CCCNC3=O)C(=O)COC(=O)C(C)(C)C#N)cc12 please.
A. < 15 min

Q. Also, COc1cccc2[nH]c(C(=O)N[C@@H](CC(C)C)C(=O)N[C@@H](C[C@@H]3CCCNC3=O)C(=O)COC(=O)C(C)(C)C(F)(F)F)cc12 please.
A. 67 min

###

Target: Replicase polyprotein 1ab (Severe acute respiratory syndrome coronavirus 2, UniProt P0DTD1)
Exercise: state measured IC50 for each of the compounds provided.
Respond numerically; units are nM and should not be typed.

Q. # lookup: IC50 of CC(=O)OCC(=O)[C@H](C[C@@H]1CCNC1=O)NC(=O)[C@H](CC(C)C)NC(=O)OCc1cccc(Cl)c1
A. 1500

Q. Also, COc1cccc2[nH]c(C(=O)N[C@@H](CC(C)C)C(=O)N[C@@H](C[C@@H]3CCCNC3=O)C(=O)COC(=O)c3ccccn3)cc12 please.
A. 126

Q. Also, COc1cccc2[nH]c(C(=O)N[C@@H](CC(C)C)C(=O)N[C@@H](C[C@@H]3CCCNC3=O)C(=O)COC(=O)c3c(C)cc(C)nc3C)cc12 please.
A. 19

Q. Also, COc1cccc2[nH]c(C(=O)N[C@@H](CC(C)C)C(=O)N[C@@H](C[C@@H]3CCCNC3=O)C(=O)CO)cc12 please.
A. 19.5

Q. Also, COc1cccc2[nH]c(C(=O)N[C@@H](CC(C)C)C(=O)N[C@@H](C[C@@H]3CCCNC3=O)C(=O)COC(=O)c3c(C)nn(C)c3C)cc12 please.
A. 71.5

Q. Also, COc1cccc2[nH]c(C(=O)N[C@@H](CC(C)C)C(=O)N[C@@H](C[C@@H]3CCCNC3=O)C(=O)COC(=O)c3ccncc3)cc12 please.
A. 32.9

Q. Also, COc1cccc2[nH]c(C(=O)N[C@@H](CC(C)C)C(=O)N[C@@H](C[C@@H]3CCCNC3=O)C(=O)COC(=O)C3(C)OCCCO3)cc12 please.
A. 12.5

###

Exercise: state measured CC50 at 24 h for each of the molecules provided.
Assay: Cytotoxicity against human Huh-7 cells assessed as reduction in cell viability incubated for 24 hrs by Celltiter-glo luminescent cell viability assay
Format: toxicity, cell-based
Respond numerically; units are µM and should not be typed.

Q. # lookup: CC50 at 24 h of CCC(CC)COC(=O)[C@H](C)N[P@](=O)(OC[C@H]1O[C@@](C#N)(c2ccc3c(N)ncnn23)[C@H](O)[C@@H]1O)Oc1ccccc1
A. 10.4

Q. Also, COc1cccc2[nH]c(C(=O)N[C@@H](CC(C)C)C(=O)N[C@@H](C[C@@H]3CCNC3=O)C(=O)COC(=O)c3c(C(F)(F)F)cc(C)nc3C)cc12 please.
A. 44.9

Q. Also, COc1cccc2[nH]c(C(=O)N[C@@H](CC(C)C)C(=O)N[C@@H](C[C@@H]3CCCNC3=O)C(=O)COC(=O)C(C)(C)C(F)(F)F)cc12 please.
A. 94.6

Q. Also, COc1cccc2[nH]c(C(=O)N[C@@H](CC(C)C)C(=O)N[C@@H](C[C@@H]3CCCNC3=O)C(=O)COC(=O)c3c(C(F)(F)F)cc(C)nc3C)cc12 please.
A. 67.6

Q. Also, COc1cccc2[nH]c(C(=O)N[C@@H](CC(C)C)C(=O)N[C@@H](C[C@@H]3CCCNC3=O)C(=O)COC(=O)c3c(C(F)(F)F)cccc3C(F)(F)F)cc12 please.
A. 94.6

###

Exercise: state measured inhibition for each of the compounds provided.
Target: UniProt P25774
Sequence (P25774 115-331 limits assumed): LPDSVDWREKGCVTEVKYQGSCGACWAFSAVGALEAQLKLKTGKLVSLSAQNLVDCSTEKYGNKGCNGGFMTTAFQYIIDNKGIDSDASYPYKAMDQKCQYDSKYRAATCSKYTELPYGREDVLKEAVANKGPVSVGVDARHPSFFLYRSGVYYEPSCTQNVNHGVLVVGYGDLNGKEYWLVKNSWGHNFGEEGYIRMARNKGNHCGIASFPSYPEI
Experiment: Inhibition of human cathepsin S at 1 uM incubated for 30 mins by fluorometric analysis

Q. # lookup: inhibition of COc1cccc2[nH]c(C(=O)N[C@@H](CC(C)C)C(=O)N[C@@H](C[C@@H]3CCCNC3=O)C(=O)COC(=O)c3c(C(F)(F)F)cc(C)nc3C)cc12
A. 98.4%

Q. Also, COc1cccc2[nH]c(C(=O)N[C@@H](CC(C)C)C(=O)N[C@@H](C[C@@H]3CCCNC3=O)C(=O)CO)cc12 please.
A. 60.8%

Q. Also, COc1cccc2[nH]c(C(=O)N[C@@H](CC(C)C)C(=O)N[C@@H](C[C@@H]3CCCNC3=O)C(=O)COC(=O)C3(C(F)(F)F)CCCCC3)cc12 please.
A. 84.2%

Q. Also, COc1cccc2[nH]c(C(=O)N[C@@H](CC(C)C)C(=O)N[C@@H](C[C@@H]3CCCNC3=O)C(=O)COC(=O)c3c(C(F)(F)F)cccc3C(F)(F)F)cc12 please.
A. 96.8%

Q. Also, O=C[C@H](C[C@@H]1CCNC1=O)NC(=O)[C@H](CC1CCCCC1)NC(=O)OCc1cccc(Cl)c1 please.
A. 99.3%

Q. Also, COc1cccc2[nH]c(C(=O)N[C@@H](CC(C)C)C(=O)N[C@@H](C[C@@H]3CCCNC3=O)C(=O)COC(=O)c3ccccc3)cc12 please.
A. 41%

Q. Also, COc1cccc2[nH]c(C(=O)N[C@@H](CC(C)C)C(=O)N[C@@H](C[C@@H]3CCCNC3=O)C(=O)COC(=O)c3c(C)cc(C)nc3C)cc12 please.
A. 98.1%
